The origin of these recorded values is ChEMBL document CHEMBL5058577.

Exercise: state measured Population Fragmented Nuclei (%) for each of the molecules provided.
system: Fibroblast; assay: Multiplex assay against human fibroblast; assay type: toxicity, cell-based; settings: 24 h, 10 µM, compound concentration 10 uM, replicate 2
Returns: string containing the numeric result and its unit.

Task: Provide measured Population Fragmented Nuclei (%) value, entry: CN1CCN(c2nc3cc(C(F)(F)F)ccc3n3cccc23)CC1.O=C(O)/C=C\C(=O)O.O=C(O)/C=C\C(=O)O
Output: 37%

Task: Provide measured Population Fragmented Nuclei (%) value, entry: O=C(NCC(=O)N1CC[C@H](N[C@H]2CC[C@@](O)(c3ccc(-c4ncccn4)cn3)CC2)C1)c1cccc(C(F)(F)F)c1
Output: 29%

Task: Provide measured Population Fragmented Nuclei (%) value, entry: c1cc(OCCCN2CCCCC2)ccc1CN1CCCCC1
Output: 45%

Task: Provide measured Population Fragmented Nuclei (%) value, entry: CSc1ccccc1N1CCN(CCCCCC(=O)NC2CCCc3ccccc32)CC1.Cl (centres undefined)
Output: 33%

Task: Provide measured Population Fragmented Nuclei (%) value, entry: CN(C)c1ccnc2sc3c(=O)n(N4CCCCCC4)cnc3c12
Output: 35%

Task: Provide measured Population Fragmented Nuclei (%) value, entry: COc1ccc2c(c1)C(C(=O)N(Cc1ccc(N(C)C)cc1)c1ccc(C(C)C)cc1)CCC2.Cl (centres undefined)
Output: 39%

Task: Provide measured Population Fragmented Nuclei (%) value, entry: CCCN1CCC[C@@H]2Cc3n[nH]cc3C[C@H]21.Cl [QUINPIROLE HYDROCHLORIDE]
Output: 38%

Task: Provide measured Population Fragmented Nuclei (%) value, entry: O=C1COc2nccc(-c3ccccc3F)c2CN1Cc1cc(C(F)(F)F)cc(C(F)(F)F)c1
Output: 26%

Task: Provide measured Population Fragmented Nuclei (%) value, entry: CC1(COc2ccc3c(c2)ncn3-c2ccc3cccc(N4CCC(N)CC4)c3n2)COC1
Output: 25%

Task: Provide measured Population Fragmented Nuclei (%) value, entry: CC[C@H]1OC(=O)[C@H](C)[C@@H](O[C@H]2C[C@@](C)(OC)[C@@H](O)[C@H](C)O2)[C@H](C)[C@@H](O[C@@H]2O[C@H](C)C[C@H](N(C)C)[C@H]2O)[C@@]2(C)CC(C)=C(O2)[C@H](C)[C@@H](O)[C@]1(C)O
Output: 40%

Task: Provide measured Population Fragmented Nuclei (%) value, entry: N[C@@]1(C(=O)O)CO[C@H]2[C@H](C(=O)O)[C@H]21
Output: 17%

Task: Provide measured Population Fragmented Nuclei (%) value, entry: O=C(NCCO)c1cccc(-c2cc(Nc3ccc(OC(F)(F)F)cc3)ncn2)c1
Output: 30%

Task: Provide measured Population Fragmented Nuclei (%) value, entry: CCCn1c(=O)c2[nH]c(C3CCCC3)nc2n(CCC)c1=O
Output: 35%

Task: Provide measured Population Fragmented Nuclei (%) value, entry: Cc1ccc(F)cc1C(=O)Nc1ccc(C(=O)N2Cc3cccn3Cc3ccccc32)c(Cl)c1
Output: 26%

Task: Provide measured Population Fragmented Nuclei (%) value, entry: CNC[C@H](O)c1ccc(O)c(O)c1 [EPINEPHRINE]
Output: 39%

Task: Provide measured Population Fragmented Nuclei (%) value, entry: CN1CCN2c3ncccc3Cc3ccccc3C2C1 (centres undefined)
Output: 29%

Task: Provide measured Population Fragmented Nuclei (%) value, entry: CN(C)CCCc1cc(C(=O)Nc2ccc(-c3ccncc3)cc2)ccc1O.Cl.Cl
Output: 31%

Task: Provide measured Population Fragmented Nuclei (%) value, entry: Cc1nc2ccc(Oc3ccc(F)cc3)cc2c(=O)n1C[C@H]1CCCN(C(C)C)C1.Cl
Output: 30%

Task: Provide measured Population Fragmented Nuclei (%) value, entry: CC(C)(C)c1ccc(S(=O)(=O)Nc2ccc(Cl)cc2C(=O)c2cc[n+]([O-])cc2)cc1
Output: 32%
